Target: T1, 4H3297-bH
T1 chain: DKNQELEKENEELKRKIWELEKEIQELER
Assay: two-hybrid library CCNG1;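 further: natural log of median RNA to DNA barcode read ratio; higher means stronger binding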
endpoint: interaction score

Known results for binders:
| binder | interaction score |
| --- | --- |
| DKIQELEKKNEELEREIWELKKENQELKR [4H2444-bH] | 0.285 |
| DKIQELKKKIEELKRKNWELEKENQELER [4H2931-bH] | 0.571 |
| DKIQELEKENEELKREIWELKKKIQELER [4H2253-bH] | 0.617 |

A = DKIQELEKEIEELKRKNWELEKEIQELKR [4H2162-bH]
B = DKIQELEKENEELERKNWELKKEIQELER [4H2233-bH]
Hey, between A and B which has a smaller measured interaction score? Response format: the label of the selected entry. B
